Listed next: entries and their corresponding log P.
- ASSAY_METHOD_TEXT: Measurement of log P values by HPLC on reversed phase columns (EEC directive 79/831 Annex V.A8; methods [a] pH 2.3, [b] pH 2.7, [c] pH 7.8)
- Format: physicochemical
- COND: method [c]: LC-MS at pH 7.8, 0.001 molar ammonium hydrogen carbonate in water / acetonitrile

Task: Given COC(c1ccccc1Cl)C(C)NC(=O)c1sc(C)nc1C(F)(F)F (stereo not drawn) , state its recorded log P.
Output: 3.31^[c];

Task: CCOC(c1ccc(Cl)cc1Cl)C(C)NC(=O)c1ccsc1I (stereo not drawn) ?
Output: 4.60^[c];

Task: CCOC(c1ccc(Cl)cc1Cl)C(C)NC(=O)c1ccccc1Cl (stereo not drawn) ?
Output: 4.39^[c];

Task: COC(c1ccccc1Cl)C(C)NC(=O)c1ccsc1I (stereo not drawn) ?
Output: 3.53^[c];

Task: COC(c1ccc(F)cc1)C(C)NC(=O)c1c(F)cccc1C(F)(F)F (stereo not drawn) ?
Output: 3.19^[c];

Task: CCOC(c1ccc(Cl)cc1Cl)C(C)NC(=O)c1nccnc1Cl (stereo not drawn) ?
Output: 3.85^[c];

Task: COC(c1ccc(F)cc1)C(C)NC(=O)c1ccccc1C (stereo not drawn) ?
Output: 2.86^[c];

Task: COC(c1ccccc1Cl)C(C)NC(=O)c1ccccc1C (stereo not drawn) ?
Output: 3.23^[c];

Task: COC(c1ccc(Cl)cc1Cl)C1(NC(=O)c2c(F)cccc2C(F)(F)F)CC1 (stereo not drawn) ?
Output: 3.95^[c];

----------
Listed next: entries and their corresponding logP.
- ASSAY_METHOD_TEXT: Measurement of log P values by HPLC on reversed phase columns (EEC directive 79/831 Annex V.A8; methods [a] pH 2.3, [b] pH 2.7, [c] pH 7.8)
- Assay type: physicochemical
- COND: method [b]: LC-MS, pH 2.7, 0.1% formic acid in water / acetonitrile

Please review the following examples before continuing.
>  <COMPOUND>
CCn1nc(C)c(C)c1C(=O)NC(C)C(OC)c1ccccc1 (centres unmarked)

>  <logP>
2.71^[b]

$$$$
>  <COMPOUND>
COC(c1ccc(Cl)cc1Cl)C(C)(C)NC(=O)c1ccccc1F (centres unmarked)

>  <logP>
4.80^[b]

$$$$

Task: Given COC(c1ccc(Cl)cc1Cl)C1(NC(=O)c2c(C(F)F)nn(C)c2Cl)CC1 (centres unmarked) , state its recorded logP.
Output: 3.70^[b]

Task: COC(c1ccc(Cl)cc1)C(C)(C)NC(=O)c1ccccc1Cl (centres unmarked) ?
Output: 4.12^[b]

Task: COC(CNC(=O)c1cccnc1C(F)(F)F)c1ccc(Cl)cc1Cl (centres unmarked) ?
Output: 3.11^[b]

----------
- ASSAY_METHOD_TEXT: Measurement of log P values by HPLC on reversed phase columns (EEC directive 79/831 Annex V.A8; methods [a] pH 2.3, [b] pH 2.7, [c] pH 7.8)
- Assay type: physicochemical
- COND: method [b]: LC-MS at pH 2.7, 0.1% formic acid in water / acetonitrile
- Procedure: Measurement of log P-values: Measurement of log P values was performed according EEC directive 79/831 Annex V.A8 by HPLC (High Performance Liquid Chromatography) on reversed phase columns with the following methods: ^[a] Measurement was done at pH 2.3 with 0.1% phosphoric acid and acetonitrile as eluent with a linear gradient from 10% acetonitrile to 95% acetonitrile. […]
MEASUREMENT_NAME: log P

Please review the following examples before continuing.
>  <COMPOUND>
COC(c1ccc(Cl)cc1Cl)C1(NC(=O)c2ccccc2I)CC1 (stereo not shown) [Compound 152]

>  <log P>
3.92^[b]

$$$$
>  <COMPOUND>
COC(c1ccccc1Cl)C(C)NC(=O)c1ccccc1C(F)F (stereo not shown) [Compound 140]

>  <log P>
3.42^[b]

$$$$
>  <COMPOUND>
COC(c1ccc(Cl)cc1Cl)C1(NC(=O)c2cc([N+](=O)[O-])nn2C(F)F)CC1 (stereo not shown) [compound 122]

>  <log P>
3.94^[b]

$$$$
>  <COMPOUND>
COC(c1ccccc1Cl)C(C)NC(=O)c1c(F)cccc1C(F)(F)F (stereo not shown) [Compound 141]

>  <log P>
3.52^[b]

$$$$
>  <COMPOUND>
COC(c1ccccc1Cl)C(C)NC(=O)c1nccnc1Cl (stereo not shown) [Compound 213]

>  <log P>
2.76^[b]

$$$$

Task: Given COC(CNC(=O)c1nccnc1C(F)(F)F)c1cc(Cl)cc(Cl)c1 (stereo not shown) [Compound 120] , state its recorded log P.
Output: 3.42^[b]

Task: CCOC(c1ccc(Cl)cc1Cl)C(C)NC(=O)c1ccccc1C(F)F (stereo not shown) [Compound 199] ?
Output: 4.45^[b]
